test.system: HER-2 kinase (EGFr/HER-2 chimera/3T3-C7 cell line) (Homo sapiens, UniProt P04626)
Construct: fused on or other part: EGFR extracellular part, stimulated by EGF and captured by the anti-EGFR antibody SUMO1; P00533 (Epidermal growth factor receptor)
Sequence (P04626 720-987 limits assumed, change not shown): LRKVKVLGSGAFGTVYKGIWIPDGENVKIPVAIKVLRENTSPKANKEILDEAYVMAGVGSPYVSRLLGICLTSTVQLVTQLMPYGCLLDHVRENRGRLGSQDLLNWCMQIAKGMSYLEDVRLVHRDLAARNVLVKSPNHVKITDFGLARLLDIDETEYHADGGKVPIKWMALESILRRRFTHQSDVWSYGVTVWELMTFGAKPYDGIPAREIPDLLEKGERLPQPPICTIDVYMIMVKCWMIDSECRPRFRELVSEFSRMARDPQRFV
test.description: Cellular HER-2 kinase assay, whole-cell ELISA
condition.label: read-out: Her2 Kinase IC50
IC50 values for the molecules below.

The following molecules have reported results that may help.
smiles.str	test.system	IC50
Cc1[nH]c(/C=C2\C(=O)Nc3ccc(-c4ccccc4)cc32)c(C)c1C(=O)NCCCn1ccnc1	HER-2 kinase (EGFr/HER-2 chimera/3T3-C7 cell line) (Homo sapiens, UniProt P04626)	> 100 µM
CCN(CC)CCCNC(=O)c1c(C)[nH]c(/C=C2\C(=O)Nc3cccc(C(=O)Nc4ccc(OC)c(Cl)c4)c32)c1C	HER-2 kinase (EGFr/HER-2 chimera/3T3-C7 cell line) (Homo sapiens, UniProt P04626)	> 100 µM
CNS(=O)(=O)c1ccc2c(c1)/C(=C/c1[nH]cc(C(=O)O)c1C)C(=O)N2	HER-2 kinase (EGFr/HER-2 chimera/3T3-C7 cell line) (Homo sapiens, UniProt P04626)	> 100 µM

Param request: IC50 | system HER-2 kinase (EGFr/HER-2 chimera/3T3-C7 cell line) (Homo sapiens, UniProt P04626) | item CCOC(=O)CNC(=O)c1c[nH]c(/C=C2\C(=O)Nc3ccc(S(=O)(=O)NC)cc32)c1C
> 100 µM

Param request: IC50 | system HER-2 kinase (EGFr/HER-2 chimera/3T3-C7 cell line) (Homo sapiens, UniProt P04626) | item CNS(=O)(=O)c1ccc2c(c1)/C(=C/c1[nH]cc(C(=O)NCC(=O)O)c1C)C(=O)N2
> 100 µM
